Target: human VR1 (Homo sapiens, UniProt Q8NER1)
Construct: expressed in transfected cells; host or cells: HEK293
Sequence (Q8NER1 whole entry): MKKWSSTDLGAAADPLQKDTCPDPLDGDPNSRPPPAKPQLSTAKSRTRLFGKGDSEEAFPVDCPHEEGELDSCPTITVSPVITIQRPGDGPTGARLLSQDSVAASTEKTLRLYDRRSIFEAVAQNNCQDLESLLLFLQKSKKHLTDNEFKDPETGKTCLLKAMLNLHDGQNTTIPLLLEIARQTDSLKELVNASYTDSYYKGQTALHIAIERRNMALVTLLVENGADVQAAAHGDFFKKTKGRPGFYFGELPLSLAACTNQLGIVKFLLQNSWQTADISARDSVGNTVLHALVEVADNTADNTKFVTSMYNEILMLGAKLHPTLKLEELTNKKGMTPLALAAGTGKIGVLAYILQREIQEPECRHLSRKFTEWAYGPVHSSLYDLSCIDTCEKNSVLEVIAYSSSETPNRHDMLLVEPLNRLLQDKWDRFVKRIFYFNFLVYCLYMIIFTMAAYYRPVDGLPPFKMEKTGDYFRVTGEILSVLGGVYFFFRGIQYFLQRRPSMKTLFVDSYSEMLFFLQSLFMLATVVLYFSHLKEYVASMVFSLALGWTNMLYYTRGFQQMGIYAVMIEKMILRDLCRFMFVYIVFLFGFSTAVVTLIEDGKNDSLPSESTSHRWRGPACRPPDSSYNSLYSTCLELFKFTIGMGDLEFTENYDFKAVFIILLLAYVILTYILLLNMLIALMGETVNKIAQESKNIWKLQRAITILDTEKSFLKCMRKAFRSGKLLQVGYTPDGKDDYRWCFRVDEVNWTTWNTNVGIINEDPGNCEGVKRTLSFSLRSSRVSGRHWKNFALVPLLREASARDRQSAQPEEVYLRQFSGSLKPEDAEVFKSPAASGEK
Test: Human VR1 functional assay (FLIPR intracellular Ca2+)
Type: cell-based
Conditions: inhibition of capsaicin response, 5 μM
Lab note: compare h % I (5 μM) against 30%. Equal or greater, write Condition met. Smaller, write Condition not met.

>>> assigned_class("CC1=NN(c2ccc(NC(=O)CCc3ccc(C(C)(C)C)cc3)cc2)C(=O)C1")
"Condition met"
>>> assigned_class("CC(C)(C)c1ccc(CCC(=O)Nc2cnc(-c3ccncc3)cn2)cc1")
"Condition met"
>>> assigned_class("CC(C)(C)c1ccc(CCC(=O)Nc2ccc(-c3ccncc3)c3ccccc23)cc1")
"Condition not met"
>>> assigned_class("CC(C)(C)c1ccc(CCC(=O)Nc2ccc(-c3nn[nH]n3)cc2)cc1")
"Condition not met"
>>> assigned_class("CC(C)(C)c1ccc(CCC(=O)Nc2ccc(C3CN=CO3)cc2)cc1 (stereo not drawn)")
"Condition met"
>>> assigned_class("Cc1nc(-c2ccc(NC(=O)CCc3ccc(C(C)(C)C)cc3)cc2)cs1")
"Condition not met"
>>> assigned_class("CC(C)(C)c1ccc(CCC(=O)Nc2cc(F)c(-c3cccc(O)c3)c(F)c2)cc1")
"Condition met"
>>> assigned_class("Cn1cnc(-c2ccc(NC(=O)CCc3ccc(C(C)(C)C)cc3)cc2)c1")
"Condition met"

###

Biological target: human VR1 (Homo sapiens, UniProt Q8NER1)
Construct: expressed in transfected cells; host or cells: HEK293
Test: Human VR1 functional assay (FLIPR intracellular Ca2+)
Format: cell-based
Conditions: inhibition of capsaicin response, 1 μM; read-out: h % I (1 μM)
MEASURE: inhibition at 1 µM

>>> test_result("O=C(CCc1ccc(C(F)(F)F)cc1)Nc1ccc(-n2cnc3ccccc32)c(C(F)(F)F)c1 [Cpd 253]")
"52%"
>>> test_result("Cc1cc(NC(=O)CCc2ccc(Cl)cc2)cnc1-n1cnc(Cl)c1Cl [Cpd 234]")
"88%"
>>> test_result("O=C(CCc1ccc(C(F)(F)F)cn1)Nc1ccc(-n2cnc(Cl)c2Cl)c(C(F)(F)F)c1 [Cpd 248]")
"83%"
>>> test_result("Cc1cc(NC(=O)CCc2ccc(C(C)(C)C)cc2)ccc1-c1ccccc1O [Cpd 97]")
"95%"
>>> test_result("O=C(CCc1ccc(Cl)cc1)Nc1ccc(-n2cnc(Cl)c2Cl)c(C(F)(F)F)c1 [Cpd 231]")
"90%"
>>> test_result("Cc1cn(-c2ccc(NC(=O)CCc3ccc([S+]([O-])C(F)(F)F)cc3)cc2C(F)(F)F)cn1 (centres unmarked) [Cpd 222]")
"100%"
>>> test_result("Cc1cc(NC(=O)CCc2ccc(F)c(F)c2)cnc1-n1cnc(Cl)c1Cl [Cpd 257]")
"41%"
>>> test_result("O=C(CCc1ccc(C(F)(F)F)cc1)Nc1ccc(-n2cnc(Cl)c2)c(C(F)(F)F)c1 [Cpd 227]")
"100%"

###

Target: human VR1 (Homo sapiens, UniProt Q8NER1)
Construct: expressed in transfected cells; host or cells: HEK293
Assay: Human VR1 functional assay (FLIPR intracellular Ca2+)
Format: cell-based
Conditions: inhibition of capsaicin response, 5 μM; read-out: h % I (5 μM)
Method: The functional activity of the test compounds was determined by measuring changes in intracellular calcium concentration using a Ca^2+-sensitive fluorescent dye and FLIPR™ technology. Increases in Ca^2+ concentration were readily detected upon challenge with capsaicin. […] EC50 or IC50 values were determined from dose-response studies. […]
MEASURE: inhibition at 5 µM (%)

>>> test_result("O=C(CCc1ccc(C(F)(F)F)cc1)Nc1cnc(-c2ccccc2O)c(C(F)(F)F)c1")
100
>>> test_result("CC(C)(C)c1ccc(CCC(=O)Nc2cnc(-n3cnc(Cl)c3Cl)c(C(F)(F)F)c2)cc1")
101
>>> test_result("Cc1nc(-c2ccc(NC(=O)CCc3ccc(C(F)(F)F)cc3)cc2C(F)(F)F)no1")
64
>>> test_result("Cc1cc(NC(=O)CCc2ccc(C(C)(C)C)cc2)cc(C)c1-c1cccnc1")
76
>>> test_result("O=C(CCc1ccc(C(F)(F)F)cc1)Nc1cnc(-n2cnc(Cl)c2Cl)c(C(F)(F)F)c1")
101
>>> test_result("O=C(CCc1ccc(C(F)(F)F)cc1)Nc1ccc(C2=NOS(=O)N2)c(C(F)(F)F)c1 (centres unmarked)")
9
>>> test_result("Cc1cc(NC(=O)CCc2ccc(C(C)(C)C)cc2)cc(C)c1-c1ccncc1")
93
>>> test_result("CC(C)(C)c1ccc(CCC(=O)Nc2ccc(-n3cnc(Cl)c3Cl)cc2)cc1")
99

###

The entries below are paired with their reported Emax at 6 µM.
Target: human VR1 (Homo sapiens)
Construct: expressed in transfected cells; host or cells: HEK293
Test: Human VR1 functional assay (FLIPR intracellular Ca2+)
Type: cell-based
Conditions: agonist response, 6 μM; read-out: % Response Relative to EC80 of Capsaicin (6 μM)
MEASURE: Emax at 6 µM (%)

>>> test_result("CC(C)(C)c1ccc(CCC(=O)Nc2ccc(-c3ccccc3O)c(CO)c2)cc1 [Cpd 92]")
133
>>> test_result("Cc1cc(NC(=O)CCc2ccc(C(C)(C)C)cc2)ccc1-c1ccncc1 [Cpd 180]")
96
>>> test_result("CC(C)(C)c1ccc(CCC(=O)Nc2ccc(-c3ccccc3O)c(F)c2)cc1 [Cpd 100]")
96
>>> test_result("CC(C)(C)c1ccc(CCC(=O)Nc2ccc(-c3cccc(CO)c3)c(CO)c2)cc1 [Cpd 95]")
127
>>> test_result("CC(C)(C)c1ccc(CCC(=O)Nc2ccc(-c3ccc(CO)cc3)c(CO)c2)cc1 [Cpd 96]")
65
>>> test_result("CC(C)(C)c1ccc(CCC(=O)Nc2ccc(-c3ccncc3)c(CO)c2)cc1 [Cpd 171]")
119
>>> test_result("CC(C)(C)c1ccc(CCC(=O)Nc2ccc(-c3ccc(CO)cc3)c(F)c2)cc1 [Cpd 102]")
74
>>> test_result("CC(C)(C)c1ccc(CCC(=O)Nc2ccc(-c3ccc(O)cc3)c(CO)c2)cc1 [Cpd 94]")
115
>>> test_result("CC(C)(C)c1ccc(CCC(=O)Nc2cc(F)c(-c3ccncc3)c(F)c2)cc1 [Cpd 169]")
45
>>> test_result("CC(C)(C)c1ccc(CCC(=O)Nc2ccc(-c3cccc(O)c3)c(CO)c2)cc1 [Cpd 93]")
153
>>> test_result("CC(C)(C)c1ccc(CCC(=O)Nc2ccc(-c3ccc(O)cc3)c(F)c2)cc1 [Cpd 101]")
71
>>> test_result("CC(=O)Nc1cccc(-c2ccc(NC(=O)CCc3ccc(C(C)(C)C)cc3)cc2)c1 [Cpd 16]")
63
>>> test_result("CC(C)(C)c1ccc(CCC(=O)Nc2ccc(-c3ccncc3)c(F)c2)cc1 [Cpd 182]")
97

###

Biological target: human VR1 (Homo sapiens, UniProt Q8NER1)
Construct: expressed in transfected cells; host or cells: HEK293
Experiment: Human VR1 [3H]RTX binding assay
Settings: inhibition of [3H]RTX binding at 1 μM; read-out: h Binding % I (1 μM)
MEASURE: inhibition at 1 µM (%)

>>> test_result("CC(C)(C)c1ccc(/C=C/C(=O)Nc2cccc(-c3cccc(C(N)=O)c3)c2)cc1")
82
>>> test_result("CC(C)(C)c1ccc(CCC(=O)Nc2ccc(-c3ccc(CO)cc3)nc2)cc1")
90
>>> test_result("CC(C)(C)c1ccc(CCC(=O)Nc2ccc(-c3cccc(Cl)c3)cc2)cc1")
55
>>> test_result("O=C(CCc1ccc(C(F)(F)F)cc1)Nc1ccc(-c2cccc(O)c2)cc1")
72
>>> test_result("CC(C)(C)c1ccc(CCC(=O)Nc2ccc(-c3ccc(O)cc3)nc2)cc1")
101

###

Molecular target: human VR1 (Homo sapiens)
Construct: expressed in transfected cells; host or cells: HEK293
Test: Human VR1 functional assay (FLIPR intracellular Ca2+)
Type: cell-based
Conditions: inhibition of capsaicin response, 5 μM; read-out: h % I (5 μM)
The entries below are paired with their reported inhibition at 5 µM.
MEASURE: inhibition at 5 µM (%)

>>> test_result("O=C(CCc1ccc(C(F)(F)F)cc1)Nc1ccc(-c2noc(C(F)(F)F)n2)c(C(F)(F)F)c1")
63
>>> test_result("CC(=O)Nc1cccc(-c2ncc(NC(=O)CCc3ccc(C(C)(C)C)cc3)cc2C)c1")
99
>>> test_result("Cc1cc(NC(=O)CCc2ccc(C(C)(C)C)cc2)ccc1-c1cccnc1")
100
>>> test_result("Cc1cc(NC(=O)CCc2ccc(C(C)(C)C)cc2)cnc1-n1cnc(Cl)c1Cl")
100
>>> test_result("Cc1cc(NC(=O)CCc2ccc(C(C)(C)C)cc2)ccc1-c1ccc(O)cc1")
102
>>> test_result("O=C(CCc1ccc(C(F)(F)F)cc1)Nc1ccc(-c2ccc(O)cc2)c(C(F)(F)F)c1")
100
>>> test_result("O=C(CCc1ccc(C(F)(F)F)cc1)Nc1ccc(-c2cccc(O)c2)c(C(F)(F)F)c1")
100
>>> test_result("CC(C)(C)c1ccc(CCC(=O)Nc2ccc(-c3ccccn3)nc2)cc1")
22

Values were extracted from patent US20060223837A1.
